target: human cloned CHRM3 receptor (M3_CHO cells) (Homo sapiens, UniProt P20309); construct: expressed in transfected cells; host or cells: CHO-K1; test: CHRM3 Ca++ Flux Assay (agonist mode, FDSS 7000EX); type: cell-based; details: Percent Activity measured to EC100 of Carbachol
Sequence (P20309 whole entry): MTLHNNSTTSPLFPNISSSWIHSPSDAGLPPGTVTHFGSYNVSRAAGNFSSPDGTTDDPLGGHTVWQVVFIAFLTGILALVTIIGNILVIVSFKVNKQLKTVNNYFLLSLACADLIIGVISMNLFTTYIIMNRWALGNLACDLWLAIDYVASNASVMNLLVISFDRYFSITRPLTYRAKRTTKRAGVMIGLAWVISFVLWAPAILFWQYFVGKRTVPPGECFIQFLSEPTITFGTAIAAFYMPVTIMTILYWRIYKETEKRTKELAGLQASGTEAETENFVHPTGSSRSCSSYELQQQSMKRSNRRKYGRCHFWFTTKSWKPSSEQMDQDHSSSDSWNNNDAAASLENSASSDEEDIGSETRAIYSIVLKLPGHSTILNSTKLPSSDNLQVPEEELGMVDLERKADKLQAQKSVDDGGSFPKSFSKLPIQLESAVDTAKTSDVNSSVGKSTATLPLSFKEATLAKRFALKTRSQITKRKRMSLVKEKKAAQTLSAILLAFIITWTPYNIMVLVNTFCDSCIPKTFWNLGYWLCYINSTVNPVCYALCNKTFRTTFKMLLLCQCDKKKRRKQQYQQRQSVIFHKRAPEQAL
measurementType: M3 FDSS PA
Please append the unit to your numeric answer.

Any idea what M3 FDSS PA came out for COc1ccccc1C1CCN([C@@H]2CCC3(C2)CN(c2ncns2)C3)CC1 (single isomer, unassigned) [Example 10R] on human cloned CHRM3 receptor (M3_CHO cells) (Homo sapiens, UniProt P20309)?
0%

Do the same for O=C(N1CC2(CC[C@@H](N3CCC(c4ccccc4OC4CCOCC4)CC3)C2)C1)C1(F)CC1 (single isomer, unassigned) [Example 9F] please
0%

Try the molecule O[C@H]1CC[C@@H](c2ccccc2C2CCN([C@@H]3CCC4(C3)CN(c3nnco3)C4)CC2)CC1 (single isomer, unassigned) [Example 2N]
0%

Now the molecule Cc1nnc(COc2ccccc2C2CCN([C@@H]3CCC4(C3)CN(C(=O)C3(F)CC3)C4)CC2)o1 (single isomer, unassigned) [Example 7W]
0%

And Cc1nc(COc2ccccc2C2CCN([C@@H]3CCC4(C3)CN(C(=O)C3(F)CC3)C4)CC2)no1 (single isomer, unassigned) [Example 7Z] ?
0%

Could you do the same for CCOc1ccccc1C1CCN([C@@H]2CCC3(C2)CN(C(=O)C2(F)CC2)C3)CC1 (single isomer, unassigned) [Example 7S] , please?
0%

Moving on to Fc1ccc(OC2CCOCC2)c(C2CCN([C@@H]3CCC4(C3)CN(c3cncnc3)C4)CC2)c1 (single isomer, unassigned) [Example 10H]
0%

Param item: O=C(N1CC2(CC[C@@H](N3CCC(c4cc(F)ccc4OC4CCOCC4)CC3)C2)C1)C1(F)CC1 (single isomer, unassigned) [Example 9D]
0%

Try this molecule next: O=C(N1CC2(CC[C@@H](N3CCC(c4cc(F)ccc4OC4CCOCC4)CC3)C2)C1)C1(F)CC1 (single isomer, unassigned) [Example 9C]
0%

Thanks! And Cc1noc(C)c1COc1ccccc1C1CCN([C@@H]2CCC3(C2)CN(C(=O)C2(F)CC2)C3)CC1 (single isomer, unassigned) [Example 7U] ?
0%

Further, for O=C(N1CC2(CC[C@@H](N3CCC(c4ccccc4OC(F)(F)F)CC3)C2)C1)C1(F)CC1 (single isomer, unassigned) [Example 9A] ?
0%

Same read-out for O=C(N1CC2(CC[C@@H](N3CCC(c4cc(F)ccc4OC4CC5(COC5)C4)CC3)C2)C1)C1(F)CC1 (single isomer, unassigned) [Example 11A] ?
0%

Check O=C(N1CC2(CC[C@@H](N3CCC(c4ccccc4OCCC(F)(F)F)CC3)C2)C1)C1(F)CC1 (single isomer, unassigned) [Example 7AA] too.
0%

Query Fc1ccc(OC2CC3(COC3)C2)c(C2CCN([C@@H]3CCC4(C3)CN(c3cncnc3)C4)CC2)c1 (single isomer, unassigned) [Example 10E] next
0%

---

molecular target: Cloned human M1 receptor (CHRM1) stably expressed in HEK293 cells (Homo sapiens); construct: expressed in transfected cells; host or cells: HEK293; assay: CHRM1 Ca++ Flux Assay (agonist mode, FDSS 7000EX); assay type: cell-based; conditions: geometric mean if tested more than once
Sequence (P11229 whole entry): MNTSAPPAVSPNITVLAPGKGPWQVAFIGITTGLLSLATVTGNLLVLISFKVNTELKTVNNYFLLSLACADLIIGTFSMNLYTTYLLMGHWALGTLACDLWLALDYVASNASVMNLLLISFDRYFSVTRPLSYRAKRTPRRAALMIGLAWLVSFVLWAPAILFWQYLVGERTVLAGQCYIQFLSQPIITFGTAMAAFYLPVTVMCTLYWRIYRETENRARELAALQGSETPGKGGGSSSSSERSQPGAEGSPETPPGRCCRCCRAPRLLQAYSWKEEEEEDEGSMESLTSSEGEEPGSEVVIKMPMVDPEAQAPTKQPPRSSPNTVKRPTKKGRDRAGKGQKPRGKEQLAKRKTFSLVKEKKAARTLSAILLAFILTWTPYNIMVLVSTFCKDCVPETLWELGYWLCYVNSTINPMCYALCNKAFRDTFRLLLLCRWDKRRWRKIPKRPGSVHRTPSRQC
measurementType: pEC50
Units for pEC50: none; it is -log10 of a concentration expressed in mol/L.

May I ask what pEC50 has been recorded for c1ccc(C2CCN([C@@H]3CCC4(C3)CN(c3cncnc3)C4)CC2)c(OC2COC2)c1 [Example 1K] ?
7.62

Lookup c1ccc(C2CCN([C@@H]3CCC4(C3)CN(c3cncnc3)C4)CC2)c(OCC2CCOCC2)c1 [Example 1M]
5.81

Again, but for Cc1nnc(COc2ccccc2C2CCN([C@@H]3CCC4(C3)CN(C(=O)C3(F)CC3)C4)CC2)o1 (single isomer, unassigned) [Example 7W]
8.70

Try this molecule next: Cc1nc(COc2ccccc2C2CCN([C@@H]3CCC4(C3)CN(C(=O)C3(F)CC3)C4)CC2)no1 (single isomer, unassigned) [Example 7X]
8.52

Quick one: COc1ccccc1C1CCN([C@@H]2CCC3(C2)CN(c2ncns2)C3)CC1 (single isomer, unassigned) [Example 10Q]
6.77
